Recorded pIC50 by entry
Biological target: NMB receptor (Rattus norvegicus)
Sequence (P24053 whole entry): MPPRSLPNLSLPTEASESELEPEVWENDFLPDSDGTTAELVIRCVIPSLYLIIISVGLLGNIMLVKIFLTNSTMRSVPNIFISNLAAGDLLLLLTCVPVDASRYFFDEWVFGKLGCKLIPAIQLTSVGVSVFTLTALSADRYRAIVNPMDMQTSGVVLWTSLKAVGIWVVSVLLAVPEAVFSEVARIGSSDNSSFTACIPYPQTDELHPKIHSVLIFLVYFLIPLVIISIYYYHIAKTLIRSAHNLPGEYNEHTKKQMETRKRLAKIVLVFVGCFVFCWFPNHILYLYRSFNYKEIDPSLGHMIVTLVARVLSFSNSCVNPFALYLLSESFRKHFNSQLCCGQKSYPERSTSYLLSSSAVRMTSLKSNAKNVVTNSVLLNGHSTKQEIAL
Test: [3H]inositol phosphates in NMB-R transfected cells (alone or NMB-stimulated)
Assay type: cell-based
Parameters: a full length NMB-preferring bombesin receptor clone generated from rat esophagus; expressed in transfected cells
Details: NMB-R transfected cells; 3 nM NMB; read-out: IC50 NMB-stimulated [3H]IP, NMB Receptor, Transfected Cells
pIC50: −log10 of the molar value. Where a SMILES comes first, the peptide text is derived from it. Bridges are numbered along the chain shown (N, C = ends). [ ]: non-standard residue; d: D form. 2Nal = N[C@@H](Cc1ccc2ccccc2c1)C(=O)O; d2Nal = N[C@H](Cc1ccc2ccccc2c1)C(=O)O
quantity.name: pIC50

compound | result.value
CC(C)[C@@H]1NC(=O)[C@H](CCCCN)NC(=O)[C@@H](Cc2c[nH]c3ccccc23)NC(=O)[C@H](Cc2ccc(O)cc2)NC(=O)[C@H](NC(=O)[C@H](N)Cc2ccc3ccccc3c2)CSSC[C@@H](C(=O)N[C@@H](Cc2ccc3ccccc3c2)C(N)=O)NC1=O [Analog #10] (H-[d2Nal][dC]Y[dW]KVC[2Nal]-NH2; disulfide 2-7) | 5.40
CC(C)[C@@H]1NC(=O)[C@H](CCCCN)NC(=O)[C@@H](Cc2c[nH]c3ccccc23)NC(=O)[C@H](Cc2ccc(O)cc2)NC(=O)[C@@H](NC(=O)[C@H](N)Cc2ccc3ccccc3c2)CSSC[C@H](C(=O)N[C@@H](Cc2ccc3ccccc3c2)C(N)=O)NC1=O [Analog #11] (H-[d2Nal]CY[dW]KV[dC][2Nal]-NH2; disulfide 2-7) | 5.85

----------
Molecular target: NMB receptors on C-6 cells (Rattus norvegicus)
Construct: endogenous in cells
Experiment: Binding of 125I-[D-Tyr0]NMB to C-6 glioblastoma cells
Conditions: Ki by Cheng method, read-out: Ki 125I-NMB Binding, NMB Receptor, C-6 Cells
Where a SMILES comes first, the peptide text is derived from it. Bridges are numbered along the chain shown (N, C = ends). [ ]: non-standard residue; d: D form. 2Nal = N[C@@H](Cc1ccc2ccccc2c1)C(=O)O; d2Nal = N[C@H](Cc1ccc2ccccc2c1)C(=O)O
// NB: equality with 2000 nM counts as n; only Ki strictly below is y

compound | answer.label
CC(C)[C@@H]1NC(=O)[C@H](CCCCN)NC(=O)[C@@H](Cc2c[nH]c3ccccc23)NC(=O)[C@H](Cc2ccc(O)cc2)NC(=O)[C@@H](NC(=O)[C@H](N)Cc2ccc3ccccc3c2)CSSC[C@@H](C(=O)N[C@H](Cc2ccc3ccccc3c2)C(N)=O)NC1=O [Analog #8] (H-[d2Nal]CY[dW]KVC[d2Nal]-NH2; disulfide 2-7) | y
CC(C)[C@@H]1NC(=O)[C@H](CCCCN)NC(=O)[C@@H](Cc2c[nH]c3ccccc23)NC(=O)[C@H](Cc2ccc3ccccc3c2)NC(=O)[C@@H](NC(=O)[C@H](N)Cc2ccccc2)CSSC[C@@H](C(=O)N[C@H](C(N)=O)[C@@H](C)O)NC1=O [Analog #18] (H-[dF]C[2Nal][dW]KVCT-NH2; disulfide 2-7) | n
CC(C)[C@@H]1NC(=O)[C@H](CCCCN)NC(=O)[C@@H](Cc2ccc3ccccc3c2)NC(=O)[C@H](Cc2ccc(O)cc2)NC(=O)[C@@H](NC(=O)[C@H](N)Cc2ccc3ccccc3c2)CSSC[C@@H](C(=O)N[C@@H](Cc2ccc3ccccc3c2)C(N)=O)NC1=O [Analog #17] (H-[d2Nal]CY[d2Nal]KVC[2Nal]-NH2; disulfide 2-7) | y
CC(C)[C@@H]1NC(=O)[C@H](CCCCN)NC(=O)[C@@H](Cc2c[nH]c3ccccc23)NC(=O)[C@H](Cc2ccc(O)cc2)NC(=O)[C@@H](NC(=O)[C@H](N)Cc2ccc3ccccc3c2)CSSC[C@H](C(=O)N[C@@H](Cc2ccc3ccccc3c2)C(N)=O)NC1=O [Analog #11] (H-[d2Nal]CY[dW]KV[dC][2Nal]-NH2; disulfide 2-7) | y
C[C@@H](O)[C@@H]1NC(=O)[C@H](CCCCN)NC(=O)[C@@H](Cc2c[nH]c3ccccc23)NC(=O)[C@H](Cc2ccc(O)cc2)NC(=O)[C@@H](NC(=O)[C@H](N)Cc2ccccc2)CSSC[C@@H](C(=O)N[C@@H](Cc2ccc3ccccc3c2)C(N)=O)NC1=O [Analog #7] (H-[dF]CY[dW]KTC[2Nal]-NH2; disulfide 2-7) | y
CC(C)[C@@H]1NC(=O)[C@H](Cc2c[nH]cn2)NC(=O)[C@@H](Cc2c[nH]c3ccccc23)NC(=O)[C@H](Cc2ccc(O)cc2)NC(=O)[C@@H](NC(=O)[C@H](N)Cc2ccc3ccccc3c2)CSSC[C@@H](C(=O)N[C@@H](Cc2ccc3ccccc3c2)C(N)=O)NC1=O [Analog #14] (H-[d2Nal]CY[dW]HVC[2Nal]-NH2; disulfide 2-7; N-terminus assumed) | n

----------
Target: GRP receptor (Rattus norvegicus)
Sequence (P52500 whole entry): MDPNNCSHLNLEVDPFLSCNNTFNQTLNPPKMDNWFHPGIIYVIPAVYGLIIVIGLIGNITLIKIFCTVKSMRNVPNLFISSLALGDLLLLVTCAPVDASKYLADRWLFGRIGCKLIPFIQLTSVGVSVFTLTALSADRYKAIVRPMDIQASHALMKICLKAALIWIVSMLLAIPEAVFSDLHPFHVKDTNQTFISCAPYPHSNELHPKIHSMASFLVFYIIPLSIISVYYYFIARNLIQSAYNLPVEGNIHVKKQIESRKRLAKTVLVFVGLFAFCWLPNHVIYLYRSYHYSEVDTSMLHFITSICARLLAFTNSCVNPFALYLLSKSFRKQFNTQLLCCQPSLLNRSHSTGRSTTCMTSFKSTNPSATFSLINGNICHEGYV
Assay: Amylase release from rat pancreatic acini (alone or Bn-stimulated)
Assay type: cell-based
Design: from tissue; host or cells: dispersed pancreatic acini
Details: analog 10 μM alone, control 4 ± 1
Method: pancreatic acini or [^3 H]myo[2H]inositolloaded NMBR transfected cell were incubated either with no additives, the somatostatin octapeptide analog, Bn, or NMB, or a combination for 30 min at 37° C.. Amylase release from pancreatic acini was expressed at the indicated percent of the total cellular amylase released during the incubation. [^3 H]IP i expressed in dpm's. To test for inhibitory effects, the effect of somatostatin analog (10 μM) was determined on 0.3 nM Bnstimulated
Where a SMILES comes first, the peptide text is derived from it. Bridges are numbered along the chain shown (N, C = ends). [ ]: non-standard residue; d: D form. 2Nal = N[C@@H](Cc1ccc2ccccc2c1)C(=O)O; d2Nal = N[C@H](Cc1ccc2ccccc2c1)C(=O)O
Below, each entry is listed alongside its reported Amylase Release, analog Alone (10 μM).
quantity.name: Amylase Release, analog Alone (10 μM) (% total)

molecule | result.value
CC(C)[C@@H]1NC(=O)[C@H](CCCCN)NC(=O)[C@@H](Cc2c[nH]c3ccccc23)NC(=O)[C@H](Cc2ccc(O)cc2)NC(=O)[C@@H](NC(=O)[C@H](N)Cc2ccc3ccccc3c2)CSSC[C@@H](C(=O)N[C@H](Cc2ccc3ccccc3c2)C(N)=O)NC1=O [Analog #8] (H-[d2Nal]CY[dW]KVC[d2Nal]-NH2; disulfide 2-7) | 2
CC(C)[C@@H]1NC(=O)[C@H](Cc2c[nH]cn2)NC(=O)[C@@H](Cc2c[nH]c3ccccc23)NC(=O)[C@H](Cc2ccc(O)cc2)NC(=O)[C@@H](NC(=O)[C@H](N)Cc2ccc3ccccc3c2)CSSC[C@@H](C(=O)N[C@@H](Cc2ccc3ccccc3c2)C(N)=O)NC1=O [Analog #14] (H-[d2Nal]CY[dW]HVC[2Nal]-NH2; disulfide 2-7; N-terminus assumed) | 2
CC(C)[C@@H]1NC(=O)[C@H](CCCCN)NC(=O)[C@@H](Cc2c[nH]c3ccccc23)NC(=O)[C@H](Cc2ccc(O)cc2)NC(=O)[C@H](NC(=O)[C@H](N)Cc2ccc3ccccc3c2)CSSC[C@@H](C(=O)N[C@@H](Cc2ccc3ccccc3c2)C(N)=O)NC1=O [Analog #10] (H-[d2Nal][dC]Y[dW]KVC[2Nal]-NH2; disulfide 2-7) | 3

----------
Target: UniProt:P52500
Experiment: Amylase release from rat pancreatic acini (alone or Bn-stimulated)
Assay type: cell-based
Design: from tissue; host or cells: dispersed pancreatic acini
Details: analog 10 μM plus Bn 0.3 nM, Bn without analog 15 ± 1
Where a SMILES comes first, the peptide text is derived from it. Bridges are numbered along the chain shown (N, C = ends). [ ]: non-standard residue; d: D form. 2Nal = N[C@@H](Cc1ccc2ccccc2c1)C(=O)O; d2Nal = N[C@H](Cc1ccc2ccccc2c1)C(=O)O; Lys(Et2) = CCN(CC)CCCC[C@H](N)C(=O)O; Lys(iPr) = CC(C)NCCCC[C@H](N)C(=O)O
# Amylase Release, analog Plus Bn (0.3 nM) per record follows
quantity.name: Amylase Release, analog Plus Bn (0.3 nM) (% total)

molecule | quantity.name | result.value
CC(C)NCCCC[C@@H]1NC(=O)[C@@H](Cc2c[nH]c3ccccc23)NC(=O)[C@H](Cc2ccc(O)cc2)NC(=O)[C@@H](NC(=O)[C@H](N)Cc2ccccc2)CSSC[C@@H](C(=O)N[C@@H](Cc2ccc3ccccc3c2)C(N)=O)NC(=O)[C@H]([C@@H](C)O)NC1=O [Analog #15] (H-[dF]CY[dW][Lys(iPr)]TC[2Nal]-NH2; disulfide 2-7) | Amylase Release, analog Plus Bn (0.3 nM) | 13
CC(C)[C@@H]1NC(=O)[C@H](CCCCN)NC(=O)[C@@H](Cc2ccc3ccccc3c2)NC(=O)[C@H](Cc2ccc(O)cc2)NC(=O)[C@@H](NC(=O)[C@H](N)Cc2ccc3ccccc3c2)CSSC[C@@H](C(=O)N[C@@H](Cc2ccc3ccccc3c2)C(N)=O)NC1=O [Analog #17] (H-[d2Nal]CY[d2Nal]KVC[2Nal]-NH2; disulfide 2-7) | Amylase Release, analog Plus Bn (0.3 nM) | 19
CCN(CC)CCCC[C@@H]1NC(=O)[C@@H](Cc2c[nH]c3ccccc23)NC(=O)[C@H](Cc2ccc(O)cc2)NC(=O)[C@@H](NC(=O)[C@H](N)Cc2ccccc2)CSSC[C@@H](C(=O)N[C@@H](Cc2ccc3ccccc3c2)C(N)=O)NC(=O)[C@H]([C@@H](C)O)NC1=O [Analog #16] (H-[dF]CY[dW][Lys(Et2)]TC[2Nal]-NH2; disulfide 2-7) | Amylase Release, analog Plus Bn (0.3 nM) | 12
CC(C)[C@@H]1NC(=O)[C@H](CCCCN)NC(=O)[C@@H](Cc2c[nH]c3ccccc23)NC(=O)[C@H](Cc2ccc(O)cc2)NC(=O)[C@@H](NC(=O)[C@H](N)Cc2ccccc2)CSSC[C@@H](C(=O)N[C@@H](Cc2ccc3ccccc3c2)C(N)=O)NC1=O [Analog #4] (H-[dF]CY[dW]KVC[2Nal]-NH2; disulfide 2-7) | Amylase Release, analog Plus Bn (0.3 nM) | 14
CC(C)[C@@H]1NC(=O)[C@H](Cc2c[nH]cn2)NC(=O)[C@@H](Cc2c[nH]c3ccccc23)NC(=O)[C@H](Cc2ccc(O)cc2)NC(=O)[C@@H](NC(=O)[C@H](N)Cc2ccc3ccccc3c2)CSSC[C@@H](C(=O)N[C@@H](Cc2ccc3ccccc3c2)C(N)=O)NC1=O [Analog #14] (H-[d2Nal]CY[dW]HVC[2Nal]-NH2; disulfide 2-7; N-terminus assumed) | Amylase Release, analog Plus Bn (0.3 nM) | 13
CC(C)[C@@H]1NC(=O)[C@H](CCCCN)NC(=O)[C@@H](Cc2c[nH]c3ccccc23)NC(=O)[C@H](Cc2ccc(O)cc2)NC(=O)[C@H](NC(=O)[C@H](N)Cc2ccc3ccccc3c2)CSSC[C@@H](C(=O)N[C@@H](Cc2ccc3ccccc3c2)C(N)=O)NC1=O [Analog #10] (H-[d2Nal][dC]Y[dW]KVC[2Nal]-NH2; disulfide 2-7) | Amylase Release, analog Plus Bn (0.3 nM) | 16

Data provenance is patent US5462926A.
